Biological target: SARS-CoV-2 NSP3 macrodomain (Mac1) (Severe acute respiratory syndrome coronavirus 2)
Assay: biochemical
Format: binding
Conditions: Single dose, concentration 200 μM; read-out: SARS CoV-2 macrodomain HTRF assay: Average % competition
Experimental Readout: inhibition at 200 µM (%)
Supply the numeric figure in %, leaving out any unit text.

In the examples that follow, each entry is paired with its recorded inhibition at 200 µM.
O=C(O)C(F)(F)F.OC1([C@H]2CCCN2c2ncnc3[nH]ccc23)Cc2ccccc2C1 [AVI-3731]
100
CC(C)(O)[C@H]1CCCN1c1ncnc2[nH]ccc12 [AVI-607]
100
OCC1C2CCC(C2)N1c1ncnc2[nH]ccc12 (stereo not drawn) [AVI-3713]
92
CC1(C)C[C@@H](CO)N(c2ncnc3[nH]ccc23)C1.O=C(O)C(F)(F)F [AVI-3704]
90
CCC(O)[C@H]1CCCN1c1ncnc2[nH]ccc12 (stereo partly drawn) [AVI-3666]
87
OC[C@@H]1C[C@@H]2CCC[C@@H]2N1c1ncnc2[nH]ccc12 [AVI-3720]
92

Query (compound): O[C@H]1CC[C@@H]2CCN(c3ncnc4[nH]ccc34)[C@@H]21 [AVI-3664] ; field requested: inhibition at 200 µM 93

Query (compound): OC[C@@H]1C[C@H](O)CN1c1ncnc2[nH]ccc12 [AVI-610] ; field requested: inhibition at 200 µM 56

Query (compound): OCC1CC2(CCCC2)CN1c1ncnc2[nH]ccc12 (stereo not drawn) [AVI-3708] ; field requested: inhibition at 200 µM 90

---

Target: SARS-CoV-2 NSP3 macrodomain (Mac1), P43 crystal form (Severe acute respiratory syndrome coronavirus 2)
Assay type: binding
Catalogue of molecules with associated Refined ligand occupancy (%)
Supply the numeric figure in %, leaving out any unit text.

In the examples that follow, each entry is paired with its recorded Refined ligand occupancy (%).
Cc1c[nH]c2ncnc(NCC3(O)CCC(O)CC3)c12 (stereo not drawn)
30
OC1(CNc2ncnc3[nH]ccc23)CCCC(C(F)(F)F)C1 (stereo not drawn)
40
CC(C)(CO)Nc1ncnc2[nH]ccc12
40
OC1CCN(c2ncnc3[nH]ccc23)C1 (stereo not drawn)
40
OC1(CNc2ncnc3[nH]ccc23)CCCCC1
60

Here is another molecule to look at.
Query (molecule): OC1CCC(O)(CNc2ncnc3[nH]ccc23)CC1 (stereo not drawn) ; field requested: Refined ligand occupancy (%) 14

---

Test: Kinetic solubility
Conditions: phosphate buffered saline, pH 7.4, aqueous buffer, kinetic from dmso stock
Experimental Readout: solubility kinetic at […] (µM)
Supply the numeric figure in µM, leaving out any unit text.

In the examples that follow, each entry is paired with its recorded solubility kinetic at […].
C[C@H]1CCCN(c2ncnc3[nH]ccc23)[C@H]1CO
523
CC(c1ccccc1)C(CO)Nc1ncnc2[nH]ccc12 (stereo not shown)
529

Query (compound): "CC(C)(O)[C@H]1CCCN1c1ncnc2[nH]ccc12" ; field requested: solubility kinetic at […] 518

Query (compound): O=C1CCCN1Nc1ncnc2[nH]c3cc(F)ccc3c12 [AVI-219, reference compound] ; field requested: solubility kinetic at […] 127

---

Assay: in vitro
Conditions: human, Caco-2, Ratio (B-A/A-B), Caco-2, compound concentration 5
Experimental Readout: efflux ratio at 1 h
I only need the number, thanks.

Query (molecule): O=C(Nc1ccc(C(=O)N[C@H]2c3cccc(O)c3C[C@H]2C(=O)O)cc1)NC1CC1 [AVI-92, reference compound] ; field requested: efflux ratio at 1 h 42.5

The reported numbers originate from paper doi:10.1101/2024.08.25.609621.
